The reported numbers originate from ChEMBL document CHEMBL1201862.

Overview of reported GI50 across a group of compounds:
test system: PC-3; test: NCI tumour cell line growth inhibition, 48 h
Activity calls are given as the source filed them. Cut-off read from the data, not from the text of the source: active = GI50 up to about 1.1 µM and inactive = higher.

Compound: COc1c(OC)c(OC)c2c(=O)cc(-c3ccc(OC(C)C)cc3)oc2c1OC
Assayed Target: PC-3
GI50: 18.8 µM (inactive)
//
Compound: CC(C)CCC[C@@H](C)[C@H]1CCC2C3CC=C4C[C@@H](Oc5c6ccccc6nc6ccccc56)CCC4C3CCC21 (stereo not given in full)
Assayed Target: PC-3
GI50: > 50 µM (inactive)
//
Compound: CN(C)c1cc[n+](-c2nc([N-]C(=O)C(F)(F)F)nc3c2ncn3C2CC(O)C(CO)O2)cc1 (stereo not given)
Assayed Target: PC-3
GI50: > 100 µM (inactive)
//
Compound: N#Cc1cc(-c2nc3ccc(F)cc3s2)ccc1N
Assayed Target: PC-3
GI50: > 100 µM (inactive)
//
Compound: CCc1cc(-c2nsc(=O)o2)c(S(=O)(=O)CC)s1
Assayed Target: PC-3
GI50: 33.4 µM (inactive)
//
Compound: C=CC[C@]12C[C@@H](C(=O)OC)N(C(=O)OC)[C@H]1N(S(=O)(=O)c1ccccc1)c1ccccc12
Assayed Target: PC-3
GI50: 34.6 µM (inactive)
//
Compound: CC(=O)OCC1OC(NC(=S)Nn2c(-c3ccccc3)nc3ccccc3c2=O)C(OC(C)=O)C(OC(C)=O)C1OC(C)=O (stereo not given)
Assayed Target: PC-3
GI50: > 100 µM (inactive)
//
Compound: Nc1ccccc1N/C=C\C(=O)C(Cl)(Cl)Cl
Assayed Target: PC-3
GI50: 35.3 µM (inactive)
//
Compound: CC1=NNC(=O)C1C1CC(c2c[nH]c3ccccc23)=NN(c2ccccc2)C1=O (stereo not given)
Assayed Target: PC-3
GI50: > 100 µM (inactive)
//
Compound: COC1(O)C(=O)c2ccccc2OC1(OC)c1ccccc1 (stereo not given)
Assayed Target: PC-3
GI50: > 100 µM (inactive)
//
Compound: Cc1ncc2c(=O)c3c(oc2n1)c1ccccc1n3Cc1ccccc1
Assayed Target: PC-3
GI50: > 100 µM (inactive)
//
Compound: CCOC(=O)C1C(c2ccc(OC)cc2)c2c(nn(-c3ccccc3)c2O)CC1(O)OCC (stereo not given)
Assayed Target: PC-3
GI50: 9.31 µM (inactive)
//
Compound: N#CC12C(=O)N3C(=NC(c4ccccc4)NC3c3ccccc3)C1(C#N)C(c1ccccc1)NC1=C2CCCC1 (stereo not given)
Assayed Target: PC-3
GI50: > 100 µM (inactive)
//
Compound: C=C[C@H]1CN2CCc3c([nH]c4cc(O)ccc34)[C@@H]2C[C@@H]1C[C@H]1c2[nH]c3ccccc3c2CCN1C
Assayed Target: PC-3
GI50: 4.89 µM (inactive)
//
Compound: COc1cccc2c1C(=O)c1c(O)c3c(c(O)c1C2=O)C[C@@](O)(C(=O)CO)C[C@@H]3OC1CC(N2CCOCC2C#N)C(O)C(C)O1 (stereo not given in full)
Assayed Target: PC-3
GI50: 0.000107 µM (active)
//
Compound: O=C(NNC(=O)c1csc(NC(=S)NC2CCCCC2)n1)c1ccccc1
Assayed Target: PC-3
GI50: 7.82 µM (inactive)
//
Compound: COc1cc(-c2cc(=O)c3cc4c(cc3[nH]2)OCO4)cc(OC)c1O
Assayed Target: PC-3
GI50: > 10 µM (inactive)
//
Compound: CC(CC=O)Nc1nn2c(=O)c3ccccc3nc2s1 (stereo not given)
Assayed Target: PC-3
GI50: > 100 µM (inactive)
//
Compound: CSC1=N/C(=C\c2ccccc2)C(=O)N1CN1CCCCC1
Assayed Target: PC-3
GI50: 55.5 µM (inactive)
//
Compound: CCc1c(C)c(C#N)c(=S)n(C2OC(COC(C)=O)C(OC(C)=O)C(OC(C)=O)C2OC(C)=O)c1-c1ccccc1 (stereo not given)
Assayed Target: PC-3
GI50: > 10 µM (inactive)
//
Compound: O=C(NNCc1ccc(Cl)cc1)Nc1cccc2ccccc12
Assayed Target: PC-3
GI50: > 100 µM (inactive)
//
Compound: Cc1cnc2sn(-c3ccc(Oc4ccccc4)cc3)c(=O)c2c1
Assayed Target: PC-3
GI50: 13.4 µM (inactive)
//
Compound: CCOC(=O)c1cc(=O)c2cccc3c2n1CCS3
Assayed Target: PC-3
GI50: > 100 µM (inactive)
//
Compound: C=C(Br)CNC(=O)Nc1ccc(Cl)c(Cl)c1
Assayed Target: PC-3
GI50: 11.2 µM (inactive)
//
Compound: O=C(O)C1C2CCC(C2)C1c1ccccc1 (stereo not given)
Assayed Target: PC-3
GI50: > 100 µM (inactive)
//
Compound: CC1=C(/C=C/Cl)CC(Cl)C(C)(Cl)C1 (stereo not given)
Assayed Target: PC-3
GI50: > 100 µM (inactive)
//
Compound: COc1ccc(-c2csc(Cc3nc4ccccc4c(=O)n3-c3ccc(Cl)cc3)n2)cc1
Assayed Target: PC-3
GI50: 29.4 µM (inactive)
//
Compound: CN(CCNC(=O)c1nn(C)c2c1Cc1ccccc1-2)CCNC(=O)c1nn(C)c2c1Cc1ccccc1-2
Assayed Target: PC-3
GI50: 18.4 µM (inactive)
//
Compound: Cc1c(C)c(C)n(C2OC(CO)C(O)C(O)C2O)c(=S)c1C#N (stereo not given)
Assayed Target: PC-3
GI50: > 100 µM (inactive)
//
Compound: CCCCN/N=N/c1cn(C2OC(CO)C(O)C2O)c(=O)[nH]c1=O (stereo not given)
Assayed Target: PC-3
GI50: > 100 µM (inactive)
//
Compound: C=C1CC(C)(COc2cc(=O)oc3ccccc23)OC1=O (stereo not given)
Assayed Target: PC-3
GI50: 4.11 µM (inactive)
//
Compound: FC(F)(F)c1ccc2nc3n(c2c1)C(c1c(Cl)cccc1Cl)SC3 (stereo not given)
Assayed Target: PC-3
GI50: 14.9 µM (inactive)
//
Compound: CCOC(=O)c1c2c(n(C)c1-c1ccccc1)C(=O)C(C)=CC2=O
Assayed Target: PC-3
GI50: 11.4 µM (inactive)
//
Compound: CN(C)NC1=NS(=O)(=O)c2cc3c(=O)n(C)[nH]c3cc2S1
Assayed Target: PC-3
GI50: > 10 µM (inactive)
//
Compound: CC(C)OP(=O)(OC(C)C)C(C(C)C)N(C)/C(N)=N\C1=NC(C(F)(F)F)(C(F)(F)F)N=C(C(C(F)(F)F)C(F)(F)F)O1 (stereo not given)
Assayed Target: PC-3
GI50: 2.56 µM (inactive)
//
Compound: CC(=O)OCC1OC(c2nc3ccccc3s2)=CC(OC(C)=O)C1OC(C)=O (stereo not given)
Assayed Target: PC-3
GI50: > 100 µM (inactive)
//
Compound: CC(C)c1cc2c(cc1S(=O)(=O)O)[C@@]1(C)CCC[C@@](C)(C(=O)O)C1CC2 (stereo not given in full)
Assayed Target: PC-3
GI50: > 100 µM (inactive)
//
Compound: CC1CCOc2ccc(cc2)/C=N\c2ccc(cc2)CCc2ccc(cc2)/N=C\c2ccc(cc2)OCC1
Assayed Target: PC-3
GI50: > 100 µM (inactive)
//
Compound: O=c1[nH]c(Cc2ccccc2)nc2c1sc1nc3ccccc3n12
Assayed Target: PC-3
GI50: > 100 µM (inactive)
//
Compound: COc1cc2c(c(OC)c1OC)C(=O)[C@@H](O)[C@H]2NC(N)=O
Assayed Target: PC-3
GI50: > 100 µM (inactive)

* * *

tested on: 786-0; experiment: NCI tumour cell line growth inhibition, 48 h
Active and inactive are the calls of the source. No stated cut-off is given here; in the data, active = GI50 up to about 1.1 µM and inactive = higher.
Endpoint Name: GI50

Molecule: CCOC(=O)C1C(O)CC2c3ccccc3-c3ccccc3C21 (stereo not given)
Assayed Target: 786-0
Recorded Value: 30.4 µM (inactive)

Molecule: Cc1ccc(S(=O)(=O)NNC(=O)c2cc(C)ccc2NC(=O)C23CC4CC(CC(C4)C2)C3)cc1
Assayed Target: 786-0
Recorded Value: 21.9 µM (inactive)

Molecule: COCO[C@@H]1C[C@H]2C(=O)Nc3ccccc3C(=O)N2C1
Assayed Target: 786-0
Recorded Value: > 100 µM (inactive)

Molecule: CC1OC(O[C@H]2CC[C@]3(C)[C@H]4CC=C5[C@@H]6[C@@H](C)[C@H](C)CC[C@]6(C(=O)O)CC[C@@]5(C(=O)O)[C@]4(C)CC[C@H]3C2(C)C)C(O)C(O)C1O (stereo not given in full)
Assayed Target: 786-0
Recorded Value: > 75 µM (inactive)

Molecule: CCOC(=O)NN(C(=O)OCC)C(=C(c1ccccc1)N1CCOCC1)N(NC(=O)OCC)C(=O)OCC
Assayed Target: 786-0
Recorded Value: > 100 µM (inactive)

Molecule: CC(=O)OCC1OC(NC(=S)Nn2c(-c3ccccc3)nc3ccccc3c2=O)C(OC(C)=O)C(OC(C)=O)C1OC(C)=O (stereo not given)
Assayed Target: 786-0
Recorded Value: > 100 µM (inactive)

Molecule: CC(C)(C)N1C=[N+](C(C)(C)C)CC1
Assayed Target: 786-0
Recorded Value: > 100 µM (inactive)

Molecule: Oc1ncnc2c1CCCN2
Assayed Target: 786-0
Recorded Value: > 100 µM (inactive)

Molecule: Cc1cc(C)n(CN(CCCCO)Cn2nc(C)cc2C)n1
Assayed Target: 786-0
Recorded Value: 14.8 µM (inactive)

Molecule: C=CN1CCN(c2ccccc2)P1(=O)Oc1ccccc1 (stereo not given)
Assayed Target: 786-0
Recorded Value: > 100 µM (inactive)
